Values were extracted from ChEMBL document CHEMBL1770090.

System: Staphylococcus aureus
Assay: Antimicrobial activity against Staphylococcus aureus ATCC 29213 after 24 hrs by agar well diffusion method
Type: functional
quantity-kind: diameter of the inhibition zone (DIZ)

C/C(=N/NC(=O)c1cc2ccc(O)cc2oc1=N)c1nc(-c2ccccc2)[nH]c1C | <=4 mm
C/C(=N\N=C1\N=C(c2cc3ccccc3o2)CS1)c1nc(-c2ccccc2)[nH]c1C | <=4 mm
C/C(=N\N=C1\NC(=O)/C(=C/c2cn(-c3ccccc3)nc2-c2cccs2)S1)c1nc(-c2ccccc2)[nH]c1C | <=4 mm
CC(=O)N1CCN(c2ccc(OCC3COC(Cn4ccnc4)(c4ccc(Cl)cc4Cl)O3)cc2)CC1 (centres undefined) | <=4 mm
C/C(=N\NC(N)=S)c1nc(-c2ccccc2)[nH]c1C | 5 mm

Entry C/C(=N\N=C1\N=C(c2ccccc2)CS1)c1nc(-c2ccccc2)[nH]c1C , diameter of the inhibition zone (DIZ) reported as 16 mm

Entry CC1=NC(=N/N=C(\C)c2nc(-c3ccccc3)[nH]c2C)/S/C1=N\Nc1ccc(Cl)cc1 , diameter of the inhibition zone (DIZ) reported as <=4 mm

Entry C/C(=N\N=C1\N=C2N=c3ccccc3=NC2S1)c1nc(-c2ccccc2)[nH]c1C (centres undefined) , diameter of the inhibition zone (DIZ) reported as <=4 mm
